Compiled notes: published IC50 values involving Histone deacetylase 2 (Homo sapiens).
API: value field is a number in nM; no unit string.

Some molecules with known IC50 results, for comparison:
>>> observed_value("O=C(CCCCCn1c(=O)c(-c2ccc(Cl)cc2Cl)cc2cnc(NC3CC3)nc21)NO")
157
>>> observed_value("O=c1cc(-c2ccccc2)oc2cc(O)cc(O)c12")
129000

# input for lookup
Form field, IC50 with Histone deacetylase 2 (Homo sapiens), item CCCC[C@H](NC(=O)[C@H](CN)c1c[nH]c2ccc(OC)cc12)c1nc(-c2ccn(C)c(=O)c2)c[nH]1 : 428

###

Before we begin, note that these IC50 values for Histone deacetylase 2 (Homo sapiens, UniProt Q92769) originate from several publications.

Some entries whose results are on file:
>>> observed_value("O=C(CCCCCCNC(=O)c1cc2cc(-c3cn[nH]c3)ccc2s1)NO")
"8.03 nM"
>>> observed_value("Nc1ccccc1NC(=O)c1ccc(CNC(=O)OCc2ccccc2)cc1")
"613 nM"
>>> observed_value("COc1cc(OC)c(/C=C/S(=O)(=O)Cc2ccc(OC)c(NCC(=O)O)c2)c(OC)c1")
"> 10000 nM"
>>> observed_value("O=C(NO)c1ccc(CN2C(=O)C3=C(CCN(Cc4cccc(Cl)c4)C3)N3CCN=C23)cc1")
"642 nM"

Next, consider the following compound.
Record O=C(NO)c1ccc(CNC(=O)[C@@H]2Cc3c([nH]c4ccccc34)[C@@H](c3ccc(Cl)cc3)N2CC2CC2)cc1 ; system Histone deacetylase 2 (Homo sapiens, UniProt Q92769); IC50 = 1440 nM
